# ASSAY_TARGET: Adenosine receptor A1 (Homo sapiens)
# Sequence (P30542 whole entry): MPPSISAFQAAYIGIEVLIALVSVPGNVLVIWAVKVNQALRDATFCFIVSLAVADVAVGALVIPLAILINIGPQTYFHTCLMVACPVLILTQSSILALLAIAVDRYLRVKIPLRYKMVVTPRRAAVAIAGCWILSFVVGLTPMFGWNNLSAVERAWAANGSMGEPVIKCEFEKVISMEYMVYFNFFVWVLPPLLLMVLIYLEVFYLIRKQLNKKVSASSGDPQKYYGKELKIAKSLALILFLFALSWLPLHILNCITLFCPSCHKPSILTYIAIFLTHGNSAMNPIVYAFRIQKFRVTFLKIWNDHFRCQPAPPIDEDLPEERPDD
# ASSAY_OVERVIEW: Displacement of [3H]DPCPX from human Adenosine A1 receptor expressed in CHO cells; range 324-475
# Assay type: cell-based
pKi: −log10 of the molar value.

| TEST_SMILES | pKi |
| --- | --- |
| Cn1cc2c(nc(NC(=O)Nc3ccc(Cl)c(Cl)c3)n3nc(-c4ccco4)nc23)n1 | 6.41 |
